Biological target: JNK3α1 (Homo sapiens, UniProt P53779)
Sequence (P53779 1-422 isoform P53779-2): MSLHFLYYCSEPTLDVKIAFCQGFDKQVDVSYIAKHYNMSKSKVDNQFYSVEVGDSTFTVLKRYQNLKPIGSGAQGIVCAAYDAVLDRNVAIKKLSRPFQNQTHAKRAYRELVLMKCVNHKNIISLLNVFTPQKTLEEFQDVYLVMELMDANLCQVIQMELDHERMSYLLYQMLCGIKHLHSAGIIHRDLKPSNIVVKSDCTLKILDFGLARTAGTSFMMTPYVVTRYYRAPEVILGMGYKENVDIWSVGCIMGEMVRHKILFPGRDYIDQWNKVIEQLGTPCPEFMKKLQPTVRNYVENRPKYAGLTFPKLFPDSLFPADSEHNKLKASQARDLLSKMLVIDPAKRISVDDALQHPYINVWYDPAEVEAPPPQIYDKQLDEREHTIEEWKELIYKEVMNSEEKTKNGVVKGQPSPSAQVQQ
Experiment: Kinase-Glo phosphorylation assay, JNK3α1
Assay type: biochemical
Details: IC50 -vs-Sab, JNK3α1, substrate Sab, 4-parameter nonlinear regression, 30°C, 60 min
pIC50: −log10 of the molar value. No end group written: not given here.

[
  {
    "Substance": "YGRKKRRQRRRRPKRPTTLNLF-NH2 [Tat-TI-JIP]",
    "pIC50": 7.74
  }
]

* * *

Target: JNK3α1 (Homo sapiens)
Experiment: Kinase-Glo phosphorylation assay, JNK3α1
Format: biochemical
Conditions: IC50 -vs-c-jun, JNK3α1, substrate c-jun, 4-parameter nonlinear regression, 30°C, 60 min
No end group written: not given here.

[
  {
    "Substance": "YGRKKRRQRRRRPKRPTTLNLF-NH2 [Tat-TI-JIP]",
    "Quantity unit": "µM",
    "IC50": 0.038
  }
]

Data provenance is paper PMC3158843.
